The values you see were collected from patent US8680119B2.

Biological target: human 5-HT2A receptor (Homo sapiens (Human))
Assay: [125I]DOI radioligand binding assay
Details: 0.5 nM [125I]DOI, COS7 membranes with recombinant human 5-HT2A receptor
measured.property: pIC50
Answers are plain numbers, as −log10 of the molar value.

COCCNCCOc1ccc(NC(=O)c2cccc(C(F)(F)F)c2)cc1-c1c(Cl)cnn1C : 10.09
COc1cccc(C(=O)Nc2ccc(OCCO)c(-c3c(Cl)cnn3C)c2)c1 : 9.29
COCCNC(=O)COc1ccc(NC(=O)c2cccc(C(F)(F)F)c2)cc1-c1c(Cl)cnn1C : 7.28

Now look at this entry.
query: Item under review: COCCOc1ccc(NC(=O)c2cccc(C(F)(F)F)c2)cc1-c1ccnn1C . Reported pIC50?
result: 8.36
